Could you please report measured % of Total A1PI Eluted by Fraction (Based on Absorbance at 280 nm), Flowthrough for the items listed next?
target: A1PI (Homo sapiens, UniProt P01009); construct: Human plasma is currently the only approved source of therapeutic AlPI; assay: A1PI binding on peptide-resin column, injection of 1 mg A1PI in equilibration buffer; conditions: Trp position mutations; 1 mg A1PI, 20° C.
Sequence (P01009 25-418): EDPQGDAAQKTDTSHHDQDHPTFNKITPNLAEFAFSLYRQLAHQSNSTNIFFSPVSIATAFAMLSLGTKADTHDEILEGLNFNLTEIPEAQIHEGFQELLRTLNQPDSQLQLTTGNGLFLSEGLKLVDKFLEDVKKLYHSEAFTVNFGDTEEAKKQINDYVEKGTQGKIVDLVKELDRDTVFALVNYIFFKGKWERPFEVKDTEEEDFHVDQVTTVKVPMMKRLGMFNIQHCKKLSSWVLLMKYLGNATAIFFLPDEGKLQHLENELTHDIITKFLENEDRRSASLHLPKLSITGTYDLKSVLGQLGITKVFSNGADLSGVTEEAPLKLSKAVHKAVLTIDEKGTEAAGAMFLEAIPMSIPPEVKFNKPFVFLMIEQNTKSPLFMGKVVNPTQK
Ends that are not written are not given here.
# output: bare number, implied unit %

Please give measured % of Total A1PI Eluted by Fraction (Based on Absorbance at 280 nm), Flowthrough of the following entry: V I A L V R: VIWLVR with Trp at position 3 replaced by Ala (VIALVR)
10

Please give measured % of Total A1PI Eluted by Fraction (Based on Absorbance at 280 nm), Flowthrough of the following entry: V I N L V R: VIWLVR with Trp at position 3 replaced by Asn (VINLVR)
0

Please give measured % of Total A1PI Eluted by Fraction (Based on Absorbance at 280 nm), Flowthrough of the following entry: V I D L V R: VIWLVR with Trp at position 3 replaced by Asp (VIDLVR)
84

Please give measured % of Total A1PI Eluted by Fraction (Based on Absorbance at 280 nm), Flowthrough of the following entry: "VIWLVR"
8

Please give measured % of Total A1PI Eluted by Fraction (Based on Absorbance at 280 nm), Flowthrough of the following entry: "VIFLVR"
0

Please give measured % of Total A1PI Eluted by Fraction (Based on Absorbance at 280 nm), Flowthrough of the following entry: V I R L V R: VIWLVR with Trp at position 3 replaced by Arg (VIRLVR)
0

Please give measured % of Total A1PI Eluted by Fraction (Based on Absorbance at 280 nm), Flowthrough of the following entry: V I S L V R: VIWLVR with Trp at position 3 replaced by Ser (VISLVR)
11

Please give measured % of Total A1PI Eluted by Fraction (Based on Absorbance at 280 nm), Flowthrough of the following entry: VIYLVR: VIWLVR with Trp at position 3 replaced by Tyr
0
